Reported values of % of Activity luciferase for individual entries
# System: exon 51 of Dystrophin gene
# protocol_text: Luciferase reporter of dystrophin exon 51 skipping in stable cell lines, potentiation of AAV vector with U7 antisense
# Type: cell-based
# conditions_used: compound 5 μm, with 5000 MOI of AAV vector harbouring anti-sense sequence of exon 51
Hi! Could you send only the number? It should be in %, unit omitted.

Known results for molecules:
COc1ccc(NC(=O)c2ccccc2NCCN(C)C)cc1 :: 220
COc1cccc(NC(=O)c2cccnc2Cl)c1 :: 150
COc1ccc(NC(=O)c2cccnc2Cl)cc1 :: 200

Consider the molecule COc1ccc(Nc2ccc(-c3ncc(Cl)[nH]3)cc2C)cc1 and give its measured % of Activity luciferase. 180

Consider the molecule COc1cccc(NC(=O)c2ccccc2Br)c1 [MB262, 2-Bromo-N-(3-methoxy-phenyl)-benzamide] and give its measured % of Activity luciferase. 180

Consider the molecule COc1ccc(NC(=O)c2ccccc2Br)cc1 [MB261, 2-Bromo-N-(4-methoxy-phenyl)-benzamide] and give its measured % of Activity luciferase. 220

Consider the molecule COc1ccc(NC(=O)c2cccnc2NCCN(C)C)cc1 and give its measured % of Activity luciferase. 220

###

# System: HIV-1
# protocol_text: One-round infection luciferase assay in HOS-CD4+-CCR5+ cells exposed to defective HIV-1 virions (nef/luc)
# Type: cell-based
# conditions_used: Human immunodeficiency virus 1, HOS-CD4-CCR5, 48 h, read-out: % of luciferase inhibition, compound 5 μm, two days post-infection, HOS-CD4+-CCR5+ cells
Reported values of inhibition at 5 µM for individual entries
Hi! Could you send only the number? It should be in %, unit omitted.

Known results for compounds:
COc1ccc(C(=O)Nc2cccc(Nc3cccc(C(=O)NCCC(C)C)c3)c2)cc1 [FMMB41.2] :: 35
CCN(CC)CCCNC(=O)c1cccc(Nc2ccc(NC(=O)c3ccc(OC)cc3)cc2)c1 :: 57
COc1cccc(NC(=O)c2cccnc2NCCCCCCN)c1 [FMMB17.6] :: 45
COc1ccc(Nc2ccc(C(=O)NCCC(C)C)cc2)cc1 [MMB31.12] :: 44
CC(C)CCNC(=O)c1ccc(Nc2ccc(/C=C/c3ccccn3)cc2)cc1 [FMMB53.8] :: 33
COc1ccc(C(=O)Nc2ccc(Nc3ccc(C(=O)NCCC(C)C)cc3)cc2)cc1 [FMMB44.8] :: 52
COc1cccc(NC(=O)c2cccnc2NCCCn2ccnc2)c1 [FMMB17.7] :: 41
CCN(CC)CCCNC(=O)c1ccc(Nc2ccc(NC(=O)c3ccc(OC)cc3)cc2)c(C)c1 [FMMB44.6] :: 46

Consider the compound COc1ccc(C(=O)Nc2ccc(Nc3cccc(C(=O)NCCC(C)C)c3)cc2)cc1 [FMMB44.2] and give its measured inhibition at 5 µM. 32

Consider the compound O=C(Nc1ccc(OC(F)(F)F)cc1)c1ccccc1NCCCn1ccnc1 [FMMB32.15] and give its measured inhibition at 5 µM. 41
